# Target or system: NOX2 (Homo sapiens, UniProt P04839)
# Protocol notes: Human NOX2 isolated membranes, cytochrome c assay
# Assay type: biochemical
# Set-up: NOX2 was expressed as native protein in X-CGD PLB-985 cells transduced with the RD114 pseudotyped MFGS-NOX2 vector; expressed in transfected cells; host or cells: X-CGD PLB-985 cells transduced with MFGS-NOX2; isolated membranes; Cytosolic proteins made in E. coli
# Experimental context: membrane-embedded NOX2; n = 1; read-out: IC50 NOX2 measured with the cytochrome c assay
Measurement label: IC50 (nM)
Answers are plain numbers, in nM.

Asked: What does the data say about its IC50? Entry: C#CCN(C)Cc1ccc(Cn2nnc3c(Sc4nc5ccccc5o4)ncnc32)cc1
Given back: 770
